The origin of these recorded values is paper PMC6009881.

tested on: STAT3 reporter activity in HeLa cells; test: STAT3 luciferase reporter gene assay; format: cell-based; conditions: Homo sapiens, 2 h pretreatment, oncostatin M 10 ng/ml 4 h, read-out: STAT3 reporter assay (HeLa) IC50 ±SD
READOUT TYPE: IC50 (µM)

(1) CC(C)c1cc2c(c(O)c1O)C13CCCC(C)(C)C1C(OC3=O)C2N (stereo not drawn)
(2) CS(=O)(=O)SCCOC(=O)/C=C/c1ccc(O)c(O)c1
(3) C=CCSSCCOC(=O)/C=C/c1ccc(O)c(O)c1
Qu. Order the records, beginning with the lowest IC50 and ending with the highest. Submit the labels in the order that the ranking request calls for.
Ans. 1, 2, 3
(1: 42.4 µM, 2: 60.6 µM, 3: 94.4 µM)

----------
Biological target: SH2-domain of STAT1 (Homo sapiens)
Sequence (P42224 1-750): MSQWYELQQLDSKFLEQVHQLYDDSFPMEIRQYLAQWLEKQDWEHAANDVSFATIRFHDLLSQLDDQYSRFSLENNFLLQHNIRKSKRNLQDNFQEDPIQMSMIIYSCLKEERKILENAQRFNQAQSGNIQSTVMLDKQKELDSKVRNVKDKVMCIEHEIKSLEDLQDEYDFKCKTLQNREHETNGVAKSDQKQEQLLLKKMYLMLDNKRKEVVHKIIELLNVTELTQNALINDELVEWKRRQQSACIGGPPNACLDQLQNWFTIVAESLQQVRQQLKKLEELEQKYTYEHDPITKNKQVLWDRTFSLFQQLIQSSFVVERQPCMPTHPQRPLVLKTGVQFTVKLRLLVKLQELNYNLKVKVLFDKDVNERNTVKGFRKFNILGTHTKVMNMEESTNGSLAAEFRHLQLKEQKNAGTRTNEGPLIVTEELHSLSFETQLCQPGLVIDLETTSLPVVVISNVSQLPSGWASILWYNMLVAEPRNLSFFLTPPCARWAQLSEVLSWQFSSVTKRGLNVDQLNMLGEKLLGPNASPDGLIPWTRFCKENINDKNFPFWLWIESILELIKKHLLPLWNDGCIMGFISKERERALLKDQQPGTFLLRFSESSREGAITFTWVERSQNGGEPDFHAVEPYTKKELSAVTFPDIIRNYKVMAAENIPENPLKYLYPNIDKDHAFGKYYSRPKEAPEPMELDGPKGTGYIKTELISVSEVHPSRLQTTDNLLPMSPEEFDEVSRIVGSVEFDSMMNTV
READOUT TYPE: IC50 (µM)

CC(C)c1cc2c(c(O)c1O)C13CCCC(C)(C)C1C(OC3=O)C2N (centres unmarked): 10

(A) COc1cc(/C=C/C(=O)OCCCCSS(C)(=O)=O)ccc1O
(B) COC(=O)CCCCSS(C)(=O)=O
Qu. Field: lower recorded IC50 (choose A or B ) // caller expects the label of the chosen entry
Ans. A

(a) CS(=O)(=O)SCCOC(=O)C=Cc1ccccc1 [Compound 25, 2-(Methylsulfonylthio)ethyl cinnamate]
(b) CS(=O)(=O)SCCCCO [Compound 2, S-4-hydroxybutyl methanesulfonothioate]
Qu. Endpoint returns whichever of a and b has the numerically higher IC50. // caller expects the label of the chosen entry
Ans. b
(b: 8.6 µM, a: 3.6 µM)

----------
target: STAT3-SH2 domain (Homo sapiens, UniProt P40763); test: STAT AlphaScreen-based assay (STAT3); assay type: binding; details: AlphaScreen assay; read-out: STAT3 IC50 ±SD
Sequence (P40763 whole entry, the tested form may be a part): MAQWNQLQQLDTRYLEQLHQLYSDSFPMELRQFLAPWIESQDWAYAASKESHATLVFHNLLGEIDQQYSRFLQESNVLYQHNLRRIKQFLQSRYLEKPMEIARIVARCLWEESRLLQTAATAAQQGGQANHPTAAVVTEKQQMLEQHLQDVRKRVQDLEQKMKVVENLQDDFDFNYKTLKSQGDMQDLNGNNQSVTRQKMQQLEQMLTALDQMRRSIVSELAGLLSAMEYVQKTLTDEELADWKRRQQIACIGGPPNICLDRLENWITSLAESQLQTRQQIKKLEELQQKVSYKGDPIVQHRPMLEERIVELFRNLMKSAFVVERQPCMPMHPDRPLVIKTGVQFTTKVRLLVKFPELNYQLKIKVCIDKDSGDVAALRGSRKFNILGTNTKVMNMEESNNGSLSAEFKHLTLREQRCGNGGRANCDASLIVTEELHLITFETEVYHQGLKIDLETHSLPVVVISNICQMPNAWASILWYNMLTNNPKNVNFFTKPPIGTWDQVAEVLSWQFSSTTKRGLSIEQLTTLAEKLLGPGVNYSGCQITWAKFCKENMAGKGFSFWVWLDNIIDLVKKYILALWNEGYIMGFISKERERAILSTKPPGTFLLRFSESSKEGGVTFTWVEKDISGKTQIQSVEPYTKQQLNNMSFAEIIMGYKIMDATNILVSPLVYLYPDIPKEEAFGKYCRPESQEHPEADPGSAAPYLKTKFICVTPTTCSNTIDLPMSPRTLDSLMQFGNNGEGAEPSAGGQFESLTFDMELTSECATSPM
pIC50: −log10 of the molar value.
READOUT TYPE: pIC50

COCCOCOc1ccc(/C=C/C(=O)NCCSS(C)(=O)=O)cc1OCOCCOC: 5.96
C=CCSSCCOC(=O)/C=C/c1ccc(O)c(O)c1: 5.26
C=CCSSCCC(=O)NC1c2cc(C(C)C)c(O)c(O)c2C23CCCC(C)(C)C2C1OC3=O (stereo not drawn): 5.64

(1) COc1cc(/C=C/C(=O)OCCSS(C)(=O)=O)ccc1O
(2) CS(=O)(=O)SCCCCC(=O)O
(3) CS(=O)(=O)SCCOC(=O)/C=C/c1ccc(Cl)c(Cl)c1
(4) C=CCSSCCOC(=O)/C=C/c1ccc(O)c(OC)c1
Qu. Provide the items ranked by increasing pIC50. Submit the labels in the order that the ranking request calls for.
Ans. 4, 2, 1, 3
(4: 5.11, 2: 5.33, 1: 6.05, 3: 6.52)
